tested on: NCI-H460; test: Growth inhibition of human NCI-H460 cells after 3 days by crystal violet staining; format: functional; settings: NCI-H460, 72 h
reportedProperty: log10 GI50 (log10 of the value in nM)
Hi team, quick reminder: these entries are log10 of GI50 (nM).

Exam item: Look up log10 GI50: COc1cc(-n2ccnc2-c2ccc3ccccc3c2)cc(OC)c1OC
Marked response: 1.57

---

system: HUVEC; assay: Cytotoxicity against HUVEC after 1 hr by crystal violet staining; format: functional, cell-based, Homo sapiens; conditions: huvec
reportedProperty: pIC50
The read-out pIC50 is expressed as -log10 of concentration in moles per litre.

Exam item: Look up pIC50: COc1ccc(-c2cncn2-c2cc(OC)c(OC)c(OC)c2)cc1
Marked response: 4.70

---

assay: Dissociation constant, pKa of the compound; type: physicochemical
Property: pKa; scope: individual compounds

| molSmiles | pKa |
| --- | --- |
| COc1ccc(-c2cncn2-c2cc(OC)c(OC)c(OC)c2)cc1 | 6.82 |

Exam item: Look up pKa: COc1cc(-n2cncc2-c2ccc3ccccc3c2)cc(OC)c1OC
Marked response: 5.58

---

Property: GI50; scope: individual molecules
tested on: NCI-H460; assay: Growth inhibition of human NCI-H460 cells after 3 days by crystal violet staining; assay type: functional; details: NCI-H460, 72 h
Answer with a number only, understood to be in nM.

| molSmiles | unitSpec | GI50 |
| --- | --- | --- |
| COc1cc(-n2ccnc2-c2ccc(N(C)C)cc2)cc(OC)c1OC | nM | 270 |

Exam item: Look up GI50: COc1ccc(-c2cncn2-c2cc(OC)c(OC)c(OC)c2)cc1
Marked response: 363

Exam item: Item: COc1ccc(-c2nccn2-c2cc(OC)c(OC)c(OC)c2)cc1
Marked response: 1580

Exam item: Item: COc1cc(-n2cncc2-c2ccc3ccccc3c2)cc(OC)c1OC
Marked response: 18

Exam item: Item: COc1cc(-n2cncc2-c2ccc(N(C)C)cc2)cc(OC)c1OC
Marked response: 79

Origin of values: ChEMBL document CHEMBL1154738
